test system: cultured human mast cells (CHMC); test: CHMC low cell density ionomycin activation: tryptase assay; type: cell-based; settings: Homo sapiens, Mast cell, Low Density CHMC, ionomycin activation, tryptase readout; read-out: CHMC Ionomycin Tryptase
pIC50: −log10 of the molar value.
Parameter: pIC50. Scope: all listed entries.

{"columns": ["compound", "testResult"],
 "data": [
  ["COc1ccc(OCCNNc2ncc(F)c(Nc3cccc(O)c3)n2)cc1 [Compound R950211]", "< 5.00"],
  ["Nc1cc(Nc2ccnc(Nc3ccc(Nc4ccccc4)c(N)c3)n2)ccc1Nc1ccccc1 [Compound R950123]", 5.07]
]}

So what's the measured pIC50 for this one? CCOC(=O)Cc1ccc(Nc2ncc(C(F)(F)F)c(Nc3ccc(CC(=O)OCC)cc3)n2)cc1 [Compound R926663]
< 5.00

So what's the measured pIC50 for this one? CC(C)Nc1cccc(Nc2ncc(F)c(Nc3cccc(NC(C)C)c3)n2)c1 [Compound R950166]
< 5.00

Reference source: patent US10828301B2
